Each entry below carries its recorded pIC50.
# Test system: HCT-116 (human colorectal cancer cell line)
# Test description: MTT cytotoxicity assay, HCT-116 under anoxia or normoxia
# Type: cell-based
# Experimental setup: Homo sapiens; HCT-116, anoxia 24 h then normoxia 72 h, MTT; read-out: IC50 HCT-116 Anoxia
pIC50: −log10 of the molar value.
Result type: pIC50

Compound: CCOC(=O)c1cc2ccc(OCc3cn(CCO[C@H]4O[C@@H]5O[C@@]6(C)CC[C@H]7[C@H](C)CC[C@@H]([C@H]4C)[C@@]57OO6)nn3)cc2oc1=O [12e]
Meas value: 4.45
--
Compound: C[C@H]1[C@@H](OCCCn2cc(COc3ccc4c(C(F)(F)F)cc(=O)oc4c3)nn2)O[C@@H]2O[C@@]3(C)CC[C@H]4[C@H](C)CC[C@@H]1[C@@]24OO3 [13b]
Meas value: 5.56
--
Compound: Cc1cc(=O)oc2cc(OCCn3cc(CO[C@H]4O[C@@H]5O[C@@]6(C)CC[C@H]7[C@H](C)CC[C@@H]([C@H]4C)[C@@]57OO6)nn3)ccc12 [10a]
Meas value: 4.92
--
Compound: Cc1c(C)c2ccc(OCCCn3cc(CO[C@H]4O[C@@H]5O[C@@]6(C)CC[C@H]7[C@H](C)CC[C@@H]([C@H]4C)[C@@]57OO6)nn3)cc2oc1=O [11c]
Meas value: 4.78
--
Compound: Cc1cc(=O)oc2cc(OCCCn3cc(CO[C@H]4O[C@@H]5O[C@@]6(C)CC[C@H]7[C@H](C)CC[C@@H]([C@H]4C)[C@@]57OO6)nn3)ccc12 [11a]
Meas value: 5.22
--
Compound: COc1cccc2c1C(=O)c1c(O)c3c(c(O)c1C2=O)C[C@@](O)(C(=O)CO)C[C@@H]3O[C@H]1C[C@H](N)[C@H](O)[C@H](C)O1 [DOX, doxorubicin, reference compound]
Meas value: 6.82
--
Compound: Cc1cc(=O)oc2cc(OCc3cn(CCO[C@H]4O[C@@H]5O[C@@]6(C)CC[C@H]7[C@H](C)CC[C@@H]([C@H]4C)[C@@]57OO6)nn3)ccc12 [12a]
Meas value: 4.74
--
Compound: CCOC(=O)c1cc2ccc(OCCn3cc(CO[C@H]4O[C@@H]5O[C@@]6(C)CC[C@H]7[C@H](C)CC[C@@H]([C@H]4C)[C@@]57OO6)nn3)cc2oc1=O [10e]
Meas value: 4.54
--
Compound: C[C@H]1[C@@H](OCc2cn(CCOc3ccc4c(C(F)(F)F)cc(=O)oc4c3)nn2)O[C@@H]2O[C@@]3(C)CC[C@H]4[C@H](C)CC[C@@H]1[C@@]24OO3 [10b]
Meas value: 5.08
--
Compound: Cc1c(Cl)c(=O)oc2cc(OCc3cn(CCCO[C@H]4O[C@@H]5O[C@@]6(C)CC[C@H]7[C@H](C)CC[C@@H]([C@H]4C)[C@@]57OO6)nn3)ccc12 [13d]
Meas value: 6.37
--
Compound: Cc1c(Cl)c(=O)oc2cc(OCCCn3cc(CO[C@H]4O[C@@H]5O[C@@]6(C)CC[C@H]7[C@H](C)CC[C@@H]([C@H]4C)[C@@]57OO6)nn3)ccc12 [11d]
Meas value: 5.22

====

# Tested on: HCT-116 (human colorectal cancer cell line)
# Test description: MTT cytotoxicity assay, HCT-116 under anoxia or normoxia
# Format: cell-based
# Experimental setup: Homo sapiens; HCT-116, anoxia 24 h then normoxia 72 h, MTT; read-out: IC50 HCT-116 Anoxia
Quick reference: IC50 of the listed items.
Result type: IC50 (µM)

Compound: CCOC(=O)c1cc2ccc(OCCCn3cc(CO[C@H]4O[C@@H]5O[C@@]6(C)CC[C@H]7[C@H](C)CC[C@@H]([C@H]4C)[C@@]57OO6)nn3)cc2oc1=O [11e]
Result type: IC50
Meas value: 28.1
//
Compound: Cc1c(C)c2ccc(OCCn3cc(CO[C@H]4O[C@@H]5O[C@@]6(C)CC[C@H]7[C@H](C)CC[C@@H]([C@H]4C)[C@@]57OO6)nn3)cc2oc1=O [10c]
Result type: IC50
Meas value: 6.89
//
Compound: CCOC(=O)c1cc2ccc(OCc3cn(CCCO[C@H]4O[C@@H]5O[C@@]6(C)CC[C@H]7[C@H](C)CC[C@@H]([C@H]4C)[C@@]57OO6)nn3)cc2oc1=O [13e]
Result type: IC50
Meas value: 17.6
//
Compound: Cc1c(Cl)c(=O)oc2cc(OCCn3cc(CO[C@H]4O[C@@H]5O[C@@]6(C)CC[C@H]7[C@H](C)CC[C@@H]([C@H]4C)[C@@]57OO6)nn3)ccc12 [10d]
Result type: IC50
Meas value: 5.3
